- tgt: Nluc-H1R (Homo sapiens, UniProt P35367)
- Sequence (P35367 whole entry): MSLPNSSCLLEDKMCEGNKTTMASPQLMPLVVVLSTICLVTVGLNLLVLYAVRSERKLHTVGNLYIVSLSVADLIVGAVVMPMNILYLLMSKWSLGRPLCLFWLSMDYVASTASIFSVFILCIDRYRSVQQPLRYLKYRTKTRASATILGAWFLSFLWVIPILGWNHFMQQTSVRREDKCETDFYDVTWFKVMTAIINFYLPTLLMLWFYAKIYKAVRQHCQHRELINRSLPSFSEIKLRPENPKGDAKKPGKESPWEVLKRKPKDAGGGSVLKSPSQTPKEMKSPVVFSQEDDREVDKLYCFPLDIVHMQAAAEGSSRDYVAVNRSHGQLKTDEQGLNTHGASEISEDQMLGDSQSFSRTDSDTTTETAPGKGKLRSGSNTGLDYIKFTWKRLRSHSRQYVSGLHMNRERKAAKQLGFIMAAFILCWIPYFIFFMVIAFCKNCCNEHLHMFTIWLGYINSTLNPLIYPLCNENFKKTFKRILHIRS
- assayInfo: NanoBRET competition binding assay (displacement of 1) on Nluc-H1R expressing HEK293T cells
- assayContext: displacement of 1 (25 nM, KD = 8 nM), whole HEK293T cells, Cheng–Prusoff; mean ± SEM, three experiments
Square brackets hold non-standard residues; d marks the D form. Peptide text beside a SMILES is read from it. * marks the point of attachment. Propanoyl(3-Pip(4-O-2-BnPh)) = O=C(CCN1CCC(Oc2ccccc2Cc2ccccc2)CC1)*
measurementType: pKi

CC(C)[C@H](NC(=O)CCN1CCC(Oc2ccccc2Cc2ccccc2)CC1)C(=O)N[C@@H](CO)C(=O)N[C@@H](CO)C(=O)N[C@H](Cc1ccccc1)C(N)=O [Compound 10e] ({Propanoyl(3-Pip(4-O-2-BnPh))}-VSS[dF]-NH2)    6.47
CC(C)[C@H](NC(=O)CCN1CCC(Oc2ccccc2Cc2ccccc2)CC1)C(=O)NCC(=O)N[C@@H](C)C(=O)N[C@H](Cc1ccccc1)C(N)=O [Compound 9a] ({Propanoyl(3-Pip(4-O-2-BnPh))}-VGA[dF]-NH2)    6.30
CC(C)[C@H](NC(=O)CCN1CCC(Oc2ccccc2Cc2ccccc2)CC1)C(=O)N[C@@H](CO)C(=O)N[C@@H](Cc1ccc(O)cc1)C(=O)N[C@H](Cc1ccccc1)C(N)=O [Compound 10d] ({Propanoyl(3-Pip(4-O-2-BnPh))}-VSY[dF]-NH2)    7.02
CC(C)[C@H](NC(=O)CCN1CCC(Oc2ccccc2Cc2ccccc2)CC1)C(=O)N[C@@H](CO)C(=O)N[C@@H](Cc1cnc[nH]1)C(=O)N[C@H](Cc1ccccc1)C(N)=O [Compound 10g] ({Propanoyl(3-Pip(4-O-2-BnPh))}-VSH[dF]-NH2)    6.90
